Each record here notes measured Post-emergent action, rating, Stellaria.
# Test system: Stellaria
# procedure details: Post-emergent herbicidal action (contact herbicide)
# Type: in vivo
# details: 2000 g of active substance/ha, sprayed in the 4- to 6-leaf stage, evaluated after about 18 days, ratings scale 1-9
experimental endpoint: Post-emergent action, rating, Stellaria

compound="CC1CC2CCCCC2N1S1=NC(N)=NC(Oc2c(F)c(F)c(F)c(F)c2F)=N1 (stereo not drawn)" system_under_test=Stellaria readout_number=5
compound="CC1(C)CCC(OS2=NC(N)=NC(Oc3c(F)c(F)c(F)c(F)c3F)=N2)CC1 (stereo not drawn)" system_under_test=Stellaria readout_number=2
compound="CC(C)N(C(C)C)S1=NC(Oc2c(F)c(F)c(F)c(F)c2F)=NC(N)=N1 (stereo not drawn)" system_under_test=Stellaria readout_number=4
compound="CC(C)(C)C1CCC(OS2=NC(N)=NC(Oc3c(F)c(F)c(F)c(F)c3F)=N2)CC1 (stereo not drawn) [5.127]" system_under_test=Stellaria readout_number=3
compound="CC(C)(C)C1CCC(OS2=NC(N)=NC(Oc3c(F)c(F)c(F)c(F)c3F)=N2)CC1 (stereo not drawn) [5.316]" system_under_test=Stellaria readout_number=4
compound="NC1=NC(Oc2c(F)c(F)c(F)c(F)c2F)=NS(N2CCCCCC2)=N1 (stereo not drawn)" system_under_test=Stellaria readout_number=3
compound="CC1CCC2C(CCN2S2=NC(N)=NC(Oc3c(F)c(F)c(F)c(F)c3F)=N2)C1 (stereo not drawn)" system_under_test=Stellaria readout_number=4
compound="CC1(C)CC2CC(C)(CN2S2=NC(N)=NC(Oc3c(F)c(F)c(F)c(F)c3F)=N2)C1 (single isomer, unassigned) [6.154]" system_under_test=Stellaria readout_number=1
compound="NC1=NC(Oc2cc(F)ccc2F)=NS(N2CCCCCC2)=N1 (stereo not drawn)" system_under_test=Stellaria readout_number=4
compound="CC1(C)CCCC(OS2=NC(N)=NC(Oc3c(F)c(F)c(F)c(F)c3F)=N2)C1 (stereo not drawn)" system_under_test=Stellaria readout_number=3
compound="CC1CC(C)CN(S2=NC(N)=NC(Oc3cc(F)ccc3F)=N2)C1 (stereo not drawn)" system_under_test=Stellaria readout_number=4
compound="NC1=NC(Oc2c(F)c(F)c(F)c(F)c2F)=NS(N2CC[C@H]3CCC[C@H]32)=N1 (relative stereo)" system_under_test=Stellaria readout_number=4
compound="NC1=NC(OCC(Cl)(Cl)C(F)(F)F)=NS(OCCCl)=N1 (stereo not drawn)" system_under_test=Stellaria readout_number=5
compound="CC12CCCCC1N(S1=NC(N)=NC(Oc3c(F)c(F)c(F)c(F)c3F)=N1)CCC2 (stereo not drawn)" system_under_test=Stellaria readout_number=3
compound="CN(Cc1ccccc1)S1=NC(N)=NC(Oc2c(F)c(F)c(F)c(F)c2F)=N1 (stereo not drawn)" system_under_test=Stellaria readout_number=4
compound="NC1=NC(Oc2c(F)c(F)c(F)c(F)c2F)=NS(NC2CCCCC2)=N1 (stereo not drawn)" system_under_test=Stellaria readout_number=4
compound="NC1=NS(N2CCCCCCCCCC2)=NC(Oc2c(F)c(F)cc(F)c2F)=N1 (stereo not drawn)" system_under_test=Stellaria readout_number=3
compound="CC1CC(C)CN(S2=NC(N)=NC(Oc3c(F)c(F)c(F)c(F)c3F)=N2)C1 (stereo not drawn)" system_under_test=Stellaria readout_number=3

---

# Test system: Setaria
# procedure details: Herbicidal action before emergence of the plants (pre-emergent action)
# Format: in vivo
# Design: key: 1=complete damage; 9=no action; Ratings of 1 to 4 (in particular 1 to 3) mean a good to very good herbicidal action
# details: 2000 g of active substance/ha, sprayed immediately after sowing, evaluated after 3 weeks, ratings scale of nine levels
experimental endpoint: Pre-emergent action, rating, Setaria

compound="NC1=NC(Oc2c(F)c(F)c(F)c(F)c2F)=NS(N2CCc3ccccc3CC2)=N1 (stereo not shown)" readout_number=1
compound="CC1CCN(S2=NC(N)=NC(Oc3c(F)c(F)c(F)c(F)c3F)=N2)C2CCCCC12 (stereo not shown)" readout_number=2
compound="CC1CC(N(C)S2=NC(N)=NC(Oc3c(F)c(F)c(F)c(F)c3F)=N2)CC(C)(C)C1 (stereo not shown)" readout_number=5
compound="NC1=NC(Oc2c(F)c(F)c(F)c(F)c2F)=NS(N2CCN(c3ccccc3)CC2)=N1 (stereo not shown)" readout_number=3

---

Each record here notes measured Pre-emergent action, rating, Avena.
# Tested on: Avena
# procedure details: Herbicidal action before emergence of the plants (pre-emergent action)
# Assay type: in vivo
# details: 2000 g of active substance/ha, sprayed immediately after sowing, evaluated after 3 weeks, ratings scale of nine levels (1=complete damage, 9=no action)
experimental endpoint: Pre-emergent action, rating, Avena

compound="NC1=NC(Oc2cc(F)ccc2F)=NS(N2CCCC3CCCCC32)=N1 (centres unmarked) [6.135]" system_under_test=Avena readout_number=3
compound="CC1(C)CCC(OS2=NC(N)=NC(Oc3c(F)c(F)c(F)c(F)c3F)=N2)CC1 (centres unmarked) [5.52]" system_under_test=Avena readout_number=4
compound="CC1CCC(C)N1S1=NC(N)=NC(Oc2c(F)c(F)c(F)c(F)c2F)=N1 (centres unmarked) [6.63]" system_under_test=Avena readout_number=4
compound="CC1(C)CCCN(S2=NC(N)=NC(Oc3c(F)c(F)c(F)c(F)c3F)=N2)C1 (centres unmarked) [6.34]" system_under_test=Avena readout_number=3
compound="CC1CN(S2=NC(N)=NC(Oc3c(F)c(F)c(F)c(F)c3F)=N2)CCC(C)(C)C1 (single isomer, unassigned) [6.92]" system_under_test=Avena readout_number=4
compound="CC1(C)CCCC(OS2=NC(N)=NC(Oc3c(F)c(F)c(F)c(F)c3F)=N2)C1 (centres unmarked) [5.131]" system_under_test=Avena readout_number=4
compound="NC1=NC(Oc2c(F)c(F)c(F)c(F)c2F)=NS(N2CCCCCC2)=N1 (centres unmarked) [6.229]" system_under_test=Avena readout_number=3
compound="CC1(C)CC2CC(C)(CN2S2=NC(N)=NC(Oc3c(F)c(F)c(F)c(F)c3F)=N2)C1 (single isomer, unassigned) [6.153]" system_under_test=Avena readout_number=4

---

# Test system: Avena
# procedure details: Herbicidal action before emergence of the plants (pre-emergent action)
# Assay type: in vivo
# details: 2000 g of active substance/ha, sprayed immediately after sowing, evaluated after 3 weeks, ratings scale of nine levels (1=complete damage, 9=no action)
Each record here notes measured Pre-emergent action, rating, Avena.
experimental endpoint: Pre-emergent action, rating, Avena

molecule="NC1=NS(N2CCc3ccccc3C2)=NC(Oc2c(F)c(F)c(F)c(F)c2F)=N1 (stereo not drawn)" experimental_endpoint="Pre-emergent action, rating, Avena" readout_number=4
molecule="CC1(C)CCCN(S2=NC(N)=NC(Oc3cc(F)ccc3F)=N2)C1 (stereo not drawn)" experimental_endpoint="Pre-emergent action, rating, Avena" readout_number=4
molecule="NC1=NS(N2CCCCCC2)=NC(Oc2c(F)c(F)cc(F)c2F)=N1 (stereo not drawn)" experimental_endpoint="Pre-emergent action, rating, Avena" readout_number=2
molecule="CCCC(CC)OS1=NC(N)=NC(Oc2c(F)c(F)c(F)c(F)c2F)=N1 (stereo not drawn)" experimental_endpoint="Pre-emergent action, rating, Avena" readout_number=3
molecule="CC1CC(C)CC(OS2=NC(N)=NC(Oc3c(F)c(F)c(F)c(F)c3F)=N2)C1 (stereo not drawn)" experimental_endpoint="Pre-emergent action, rating, Avena" readout_number=4
molecule="CC1CN(S2=NC(N)=NC(Oc3c(F)c(F)c(F)c(F)c3F)=N2)CCC(C)(C)C1 (single isomer, unassigned) [6.93]" experimental_endpoint="Pre-emergent action, rating, Avena" readout_number=2
molecule="NC1=NS(N2CCCCCCCC2)=NC(Oc2c(F)c(F)c(F)c(F)c2F)=N1 (stereo not drawn)" experimental_endpoint="Pre-emergent action, rating, Avena" readout_number=3
molecule="NC1=NC(Oc2c(F)c(F)c(F)c(F)c2F)=NS(OC2CCCCCCC2)=N1 (stereo not drawn)" experimental_endpoint="Pre-emergent action, rating, Avena" readout_number=4
molecule="NC1=NC(Oc2c(F)c(F)c(F)c(F)c2F)=NS(N2CCCCC2)=N1 (stereo not drawn)" experimental_endpoint="Pre-emergent action, rating, Avena" readout_number=3
molecule="CC1CC(C)CN(S2=NC(N)=NC(Oc3c(F)c(F)c(F)c(F)c3F)=N2)C1 (stereo not drawn)" experimental_endpoint="Pre-emergent action, rating, Avena" readout_number=3
molecule="NC1=NS(N2CC3CCCC2CC3)=NC(Oc2c(F)c(F)c(F)c(F)c2F)=N1 (stereo not drawn)" experimental_endpoint="Pre-emergent action, rating, Avena" readout_number=4
molecule="CC1CC(OS2=NC(N)=NC(Oc3c(F)c(F)c(F)c(F)c3F)=N2)CC(C)(C)C1 (stereo not drawn) [5.86]" experimental_endpoint="Pre-emergent action, rating, Avena" readout_number=5
molecule="NC1=NS(N2CCc3ccccc3C2)=NC(Oc2c(F)c(F)cc(F)c2F)=N1 (stereo not drawn)" experimental_endpoint="Pre-emergent action, rating, Avena" readout_number=4
molecule="CC1CN(S2=NC(N)=NC(Oc3c(F)c(F)c(F)c(F)c3F)=N2)C2CCCCC12 (stereo not drawn)" experimental_endpoint="Pre-emergent action, rating, Avena" readout_number=3
molecule="NC1=NC(Oc2c(F)c(F)c(F)c(F)c2F)=NS(N2CCc3ccccc3CC2)=N1 (stereo not drawn)" experimental_endpoint="Pre-emergent action, rating, Avena" readout_number=4
molecule="CC(C)(C)C1CCC(OS2=NC(N)=NC(Oc3c(F)c(F)c(F)c(F)c3F)=N2)CC1 (stereo not drawn)" experimental_endpoint="Pre-emergent action, rating, Avena" readout_number=4
molecule="CCN(C1CC(C)CC(C)(C)C1)S1=NC(N)=NC(Oc2c(F)c(F)c(F)c(F)c2F)=N1 (stereo not drawn)" experimental_endpoint="Pre-emergent action, rating, Avena" readout_number=4
molecule="C[Si](C)(C)COS1=NC(N)=NC(Oc2c(F)c(F)c(F)c(F)c2F)=N1 (stereo not drawn)" experimental_endpoint="Pre-emergent action, rating, Avena" readout_number=3
